- System: Rattus norvegicus
- Protocol: The biodistribution of the [125I]-labeled compound in rats after intravenous injection was evaluated in muscle at 4.00 hrs (ID.kg/g)
- Type: ADME, organism-based, Muscle tissue
- Experimental Context: in vivo
Property Name: Biodistribution
Quick note: unit goes after the number.

For orientation, consider the following solved cases.
# input compound: CC(C)CN1CCN(c2ccc(I)cc2)CC1 ; wanted: its Biodistribution 0.03 %ID·kg/g

# input compound: Ic1ccc(N2CCN(C3CCCCC3)CC2)cc1 ; wanted: its Biodistribution 0.01 %ID·kg/g

# input compound: CCN1CCN(c2ccc(I)cc2)CC1 ; wanted: its Biodistribution 0.02 %ID·kg/g

# input compound: CN1CCN(c2ccc(I)cc2)CC1 ; wanted: its Biodistribution 0.02 %ID·kg/g

We now examine a further compound.
# input compound: CCCCCCN1CCN(c2ccc(I)cc2)CC1 ; wanted: its Biodistribution 0.02 %ID·kg/g

* * *

- Tested on: Rattus norvegicus
- Protocol: The biodistribution of the [125I]-labeled compound in rats after intravenous injection was evaluated in fat at 1.00 hrs (ID.kg/g)
- Format: ADME, organism-based, Adipose tissue
- Experimental Context: in vivo
Property Name: Biodistribution (% ID·kg/g)
Reply numerically in % ID·kg/g, unit not repeated.

# input compound: CCCCCCN1CCN(c2ccc(I)cc2)CC1 ; wanted: its Biodistribution 0.02

# input compound: CCCCN1CCN(c2ccc(I)cc2)CC1 ; wanted: its Biodistribution 0.01

# input compound: CC(C)CN1CCN(c2ccc(I)cc2)CC1 ; wanted: its Biodistribution 0.02

# input compound: Ic1ccc(N2CCN(C3CCCCC3)CC2)cc1 ; wanted: its Biodistribution 0.01

* * *

- System: Rattus norvegicus
- Protocol: The biodistribution of the [125I]-labeled compound in rats after intravenous injection was evaluated in muscle at 1.00 hrs (ID.kg/g)
- Assay type: ADME, organism-based, Muscle tissue
- Experimental Context: in vivo
Property Name: Biodistribution (%ID·kg/g)
Reply numerically in %ID·kg/g, unit not repeated.

For orientation, consider the following solved cases.
# input compound: CCCCCCN1CCN(c2ccc(I)cc2)CC1 ; wanted: its Biodistribution 0.02

# input compound: Ic1ccc(N2CCN(C3CCCCC3)CC2)cc1 ; wanted: its Biodistribution 0.03

# input compound: CCCCN1CCN(c2ccc(I)cc2)CC1 ; wanted: its Biodistribution 0.04

We now examine a further compound.
# input compound: CC(C)CN1CCN(c2ccc(I)cc2)CC1 ; wanted: its Biodistribution 0.02

* * *

Consider the following compounds and their measured Biodistribution readings.
- System: Rattus norvegicus
- Protocol: The biodistribution of the [125I]-labeled compound in rats after intravenous injection was evaluated in blood at 4.00 hrs (ID.kg/g)
- Assay type: ADME, organism-based
- Experimental Context: in vivo

For orientation, consider the following solved cases.
# input compound: CCCCN1CCN(c2ccc(I)cc2)CC1 ; wanted: its Biodistribution 0.01 % ID·kg/g

# input compound: Ic1ccc(N2CCN(C3CCCCC3)CC2)cc1 ; wanted: its Biodistribution 0.01 % ID·kg/g

# input compound: CCCCCCN1CCN(c2ccc(I)cc2)CC1 ; wanted: its Biodistribution 0.01 % ID·kg/g

# input compound: CN1CCN(c2ccc(I)cc2)CC1 ; wanted: its Biodistribution 0.02 % ID·kg/g

We now examine a further compound.
# input compound: CC(C)CN1CCN(c2ccc(I)cc2)CC1 ; wanted: its Biodistribution 0.01 % ID·kg/g

* * *

- System: Rattus norvegicus
- Protocol: The biodistribution of the [125I]-labeled compound in rats after intravenous injection was evaluated in blood at 1.00 hrs (ID.kg/g)
- Type: ADME, organism-based
- Experimental Context: in vivo
Property Name: Biodistribution (% ID·kg/g)
Reply numerically in % ID·kg/g, unit not repeated.

# input molecule: CCCCCCN1CCN(c2ccc(I)cc2)CC1 ; wanted: its Biodistribution 0.01

# input molecule: CCN1CCN(c2ccc(I)cc2)CC1 ; wanted: its Biodistribution 0.07

# input molecule: Ic1ccc(N2CCN(C3CCCCC3)CC2)cc1 ; wanted: its Biodistribution 0.01

# input molecule: CC(C)CN1CCN(c2ccc(I)cc2)CC1 ; wanted: its Biodistribution 0.01

# input molecule: CCCCN1CCN(c2ccc(I)cc2)CC1 ; wanted: its Biodistribution 0.01

* * *

- Tested on: Rattus norvegicus
- Protocol: The biodistribution of the [125I]-labeled compound in rats after intravenous injection was evaluated in blood at 0.25 hrs (ID.kg/g)
- Format: ADME, organism-based
- Experimental Context: in vivo
Property Name: Biodistribution

# input compound: CCCCCCN1CCN(c2ccc(I)cc2)CC1 ; wanted: its Biodistribution 0.01 % ID·kg/g

# input compound: CCCCN1CCN(c2ccc(I)cc2)CC1 ; wanted: its Biodistribution 0.01 % ID·kg/g

# input compound: Ic1ccc(N2CCN(C3CCCCC3)CC2)cc1 ; wanted: its Biodistribution 0.01 % ID·kg/g

# input compound: CC(C)CN1CCN(c2ccc(I)cc2)CC1 ; wanted: its Biodistribution 0.01 % ID·kg/g

# input compound: CCN1CCN(c2ccc(I)cc2)CC1 ; wanted: its Biodistribution 0.04 % ID·kg/g

We now examine a further compound.
# input compound: CN1CCN(c2ccc(I)cc2)CC1 ; wanted: its Biodistribution 0.04 % ID·kg/g

* * *

- Tested on: Rattus norvegicus
- Protocol: The biodistribution of the [125I]-labeled compound in rats after intravenous injection was evaluated in fat at 0.25 hr (ID. kg/g)
- Type: ADME, organism-based, Adipose tissue
- Experimental Context: in vivo
Consider the following compounds and their measured Biodistribution readings.
Quick note: unit goes after the number.

Query Biodistribution on Rattus norvegicus for CC(C)CN1CCN(c2ccc(I)cc2)CC1 0.02 % ID·kg/g

Query Biodistribution on Rattus norvegicus for CCCCCCN1CCN(c2ccc(I)cc2)CC1 0.01 % ID·kg/g

Query Biodistribution on Rattus norvegicus for Ic1ccc(N2CCN(C3CCCCC3)CC2)cc1 0.01 % ID·kg/g

Query Biodistribution on Rattus norvegicus for CCN1CCN(c2ccc(I)cc2)CC1 0.09 % ID·kg/g
